Ref: PubChem BioAssay (NCI)

# method_notes: NCI Yeast Anticancer Drug Screen. Data for the rad50 strain (AID 155);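 also: 0% = growth of vehicle-only cultures of the same strain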
# recorded_conditions: S. cerevisiae rad50 strain growth inhibition; at 50.0 µM (retest, dose inferred, filed as 5.0); stronger effect = higher value
The panel holds about 79,000 compounds, 15% with a hit somewhere; the sample as a whole holds those more often.
value_type: growth inhibition (%)
Answer with a number only, understood to be in %.

Here are 5 compounds together with their reported answers.
                                   compound  experimental_value
0  C=CCCCCCCCCC(=O)O (tested in a mixture with another compound)                  12
1      CN(C)c1ccc(/C=C/c2cc[n+]3ccsc3n2)cc1                  69
2  Clc1ccc2c(NCCCCN3OC3c3ccccc3)ccnc2c1 (stereo unspecified)                  67
3                  O=C1C(=O)c2cccc3cccc1c23                  79
4       O=C1c2ccccc2-c2c3c(cc4ccnc1c24)OCO3                  97

-- ask Specify reported growth inhibition for the compound shown: CNC(=O)ON(C(C)=O)C(=O)NC
-- reply 26
